Values were extracted from the MegaScale stability set (Tsuboyama et al. 2023).

B1: EEHEE_rd4_0763 (parent)
chain: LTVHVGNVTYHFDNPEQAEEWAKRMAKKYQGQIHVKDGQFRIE

- Variants of: B1
- run_description: folding stability dG (cDNA display proteolysis); higher = more stable
- study_conditions: PBS, room temperature
Below, each of the variants is paired with its reported folding stability dG value.
Numeric answer only, unit kcal/mol assumed.

| mutant_id | unit_text | folding stability dG |
| --- | --- | --- |
| I33F | kcal/mol | 1.41 |
| E19T | kcal/mol | 1.41 |

Dear colleague, I am looking for the recorded folding stability dG of the following variant: N14V 1.39

// query: N14F 1.47

// query: N7V 1.4

// query: N14Y 1.43

// query: G6L 1.47

// query: E20H 1.41
